IC50 overview
Biological target: HLA-A*02:06
Test: IEDB peptide-MHC binding, purified MHC/competitive/radioactivity; bounds were set here for any values at or beyond the usual limits of such assays
Settings: source organism: Vaccinia virus WR
Give the number first and the unit second.

Check out these entries, answers already filled in.
[
  {
    "sequence.data": "QLMYDIINSV",
    "IC50": "0.0056 µM"
  },
  {
    "sequence.data": "YLGIFKNNDV",
    "IC50": "0.285 µM"
  },
  {
    "sequence.data": "RLRQDTEDI",
    "IC50": "4.58 µM"
  },
  {
    "sequence.data": "SVDIETAIRA",
    "IC50": "1.03 µM"
  },
  {
    "sequence.data": "GVPHSVFIA",
    "IC50": "0.101 µM"
  }
]

API: the following record is the query input.
Challenge: State the recorded IC50 for this entry: `NIDSIMSMM`
Response given: 4.72 µM

====

Target: HLA-A*02:06
Test: IEDB peptide-MHC binding, purified MHC/competitive/radioactivity; bounds were set here for any values at or beyond the usual limits of such assays
Details: source organism: SARS-CoV1
pIC50: −log10 of the molar value.
Label NOT MET if pIC50 falls below 8; label MET in every other case.

Some solved cases for reference:
[
  {
    "sequence.data": "SMWALVISV",
    "class": "MET"
  },
  {
    "sequence.data": "KIILFLTLI",
    "class": "NOT MET"
  },
  {
    "sequence.data": "FLLPSLATV",
    "class": "MET"
  },
  {
    "sequence.data": "TLMNVITLV",
    "class": "MET"
  },
  {
    "sequence.data": "FLFLAWIMLL",
    "class": "NOT MET"
  }
]

Challenge: Reported pIC50 at or above 8? `FLVLIMLII`
Response given: NOT MET

Challenge: Please give the result for `WLMWFIISIV` too.
Response given: NOT MET

====

Each entry below carries its reported IC50.
Molecular target: HLA-A*31:01
Assay: IEDB peptide-MHC binding, purified MHC/competitive/radioactivity; bounds were set here for any values at or beyond the usual limits of such assays
Conditions: source organism: Hepatitis B virus
Provide the reading as a plain figure in nM.

# annotated cases, reported IC50 shown
[
  {
    "sequence.data": "RVRGLYFPA",
    "IC50 [nM]": 24
  },
  {
    "sequence.data": "ILCWGELMTL",
    "IC50 [nM]": 1860
  },
  {
    "sequence.data": "LLVPFVQWFV",
    "IC50 [nM]": 161
  }
]

Challenge: Fill in the recorded IC50 for this sequence, with HLA-A*31:01 as test system: `LLDYQGMLPV`
Response given: 4010

Challenge: Please do the same for `ILRGTSFVYV` as well.
Response given: 1360

====

Target: HLA-A*24:02
Experiment: IEDB peptide-MHC binding, cellular MHC/competitive/fluorescence; bounds were set here for any values at or beyond the usual limits of such assays
Conditions: source organism: Vaccinia virus WR
Reported pIC50 by item:
For clarity, pIC50 is expressed as the negative log10 of concentration in mol/L.

// worked examples, pIC50 included
[
  {
    "sequence.data": "NQGNILMDSI",
    "property": "pIC50",
    "readout.number": 4.17
  },
  {
    "sequence.data": "SQAKKPEVRI",
    "property": "pIC50",
    "readout.number": 4.49
  },
  {
    "sequence.data": "CQCTVQEFI",
    "property": "pIC50",
    "readout.number": 4.54
  }
]

Challenge: Look up pIC50 for this sequence: `VQSVLRDISI`
Response given: 4.60

Challenge: Now this one: `SQIFNIISYI`
Response given: 5.02
